Tested on: liver CYP1A
Assay: Liver microsomal CYP1A enzymatic activity, inhibition or enhancement
Settings: compound 100 μM; liver microsomes
A collection of compounds and their measured liver CYP1A activity (% of control group)
outcome_measure: liver CYP1A activity (% of control group)

structure	result
C[C@@H]1O[C@@H](O[C@H]2[C@H](Oc3cc(O)c4c(c3)O[C@H](c3ccc(O)cc3)CC4=O)O[C@H](CO)[C@@H](O)[C@@H]2O)[C@H](O)[C@H](O)[C@H]1O	120.55%
O=C1C[C@@H](c2ccc(O)cc2)Oc2cc(O)cc(O)c21	41.64%
COc1ccc([C@@H]2CC(=O)c3c(O)cc(O[C@@H]4O[C@H](CO[C@@H]5O[C@@H](C)[C@H](O)[C@@H](O)[C@H]5O)[C@@H](O)[C@H](O)[C@H]4O)cc3O2)cc1O	102.94%

###

# dermal CYP1A activity (% of control group) listing for each entry below
Tested on: dermal CYP1A
Assay: Dermal microsomal CYP1A enzymatic activity (7-ethoxyresorufin-O-deethylase), inhibition or enhancement
Settings: compound 1 μM; skin microsomes; mean of at least 3 repeats
Text: Nude mice were sacrificed by decapitation. The precipitate containing the microsomes was obtained.
outcome_measure: dermal CYP1A activity (% of control group)

molecule	result
O=c1cc(-c2ccc(O)c(O)c2)oc2cc(O[C@@H]3O[C@H](CO)[C@@H](O)[C@H](O)[C@H]3O)cc(O)c12 [Luteolin-7-glucoside]	105.07%
Oc1cc(O)c2c(c1)O[C@H](c1ccc(O)c(O)c1)[C@@H](O)C2 [(+)-Catechin]	78.10%
C[C@@H]1O[C@@H](O[C@H]2[C@H](Oc3cc(O)c4c(c3)O[C@H](c3ccc(O)cc3)CC4=O)O[C@H](CO)[C@@H](O)[C@@H]2O)[C@H](O)[C@H](O)[C@H]1O	149.99%
Oc1cc(O)c2c(c1)O[C@@H](c1ccc(O)c(O)c1)[C@@H](O)C2 [(+)-Epicatechin]	65.55%
O=C(O)[C@H]1O[C@@H](Oc2cc3oc(-c4ccccc4)cc(=O)c3c(O)c2O)[C@H](O)[C@@H](O)[C@@H]1O	90.14%
Oc1cc(O)c2c(c1)O[C@H](c1ccc(O)c(O)c1)[C@H](O)C2 [(−)-Epicatechin]	85.69%
O=C1C[C@@H](c2ccc(O)cc2)Oc2cc(O)cc(O)c21	29.41%
COc1ccc([C@@H]2CC(=O)c3c(O)cc(O[C@@H]4O[C@H](CO[C@@H]5O[C@@H](C)[C@H](O)[C@@H](O)[C@H]5O)[C@@H](O)[C@H](O)[C@H]4O)cc3O2)cc1O	62.61%
O=c1cc(-c2ccccc2)oc2cc(O)c(O)c(O)c12	64.73%

###

Test system: CYP1A
Assay: Liver microsomal CYP1A enzymatic activity, inhibition or enhancement
Details: nude, mouse, pH 7.8
outcome_measure: activity at 10 min, 1 µM (%)

In [3]: df
Out[3]:
                                  structure  measured_number
0  C[C@@H]1O[C@@H](Oc2c(-c3ccc(O)c(O)c3)oc3cc(O)cc(O)c3c2=O)[C@H](O)[C@H](O)[C@H]1O              109

###

Tested on: liver CYP1A
Test: Liver microsomal CYP1A enzymatic activity, inhibition or enhancement
Conditions: compound 100 μM; liver microsomes
outcome_measure: liver CYP1A activity (% of control group) (%)

>>> df
                                   compound  measured_number
0  O=c1cc(-c2ccc(O)c(O)c2)oc2cc(O[C@@H]3O[C@H](CO)[C@@H](O)[C@H](O)[C@H]3O)cc(O)c12 [Luteolin-7-glucoside]           123.78
1  Oc1cc(O)c2c(c1)O[C@H](c1ccc(O)c(O)c1)[C@@H](O)C2 [(+)-Catechin]           116.48
2  O=C(O)[C@H]1O[C@@H](Oc2cc3oc(-c4ccccc4)cc(=O)c3c(O)c2O)[C@H](O)[C@@H](O)[C@@H]1O           106.06
3  Oc1cc(O)c2c(c1)O[C@H](c1ccc(O)c(O)c1)[C@H](O)C2 [(−)-Epicatechin]           147.44
4  Oc1cc(O)c2c(c1)O[C@@H](c1ccc(O)c(O)c1)[C@@H](O)C2 [(+)-Epicatechin]           130.95

###

System: dermal CYP1A
Assay: Dermal microsomal CYP1A enzymatic activity (7-ethoxyresorufin-O-deethylase), inhibition or enhancement
Conditions: compound 10 μM; skin microsomes; mean of at least 3 repeats
Measured dermal CYP1A activity (% of control group) of individual entries
outcome_measure: dermal CYP1A activity (% of control group) (%)

compound	reading_unit	measured_number
O=c1cc(-c2ccccc2)oc2cc(O)c(O)c(O)c12 [Baicalein]	%	48.84
C[C@@H]1O[C@@H](O[C@H]2[C@H](Oc3cc(O)c4c(c3)O[C@H](c3ccc(O)cc3)CC4=O)O[C@H](CO)[C@@H](O)[C@@H]2O)[C@H](O)[C@H](O)[C@H]1O [Narigin]	%	103.30
Oc1cc(O)c2c(c1)O[C@H](c1ccc(O)c(O)c1)[C@@H](O)C2 [(+)-Catechin]	%	91.97
O=C1C[C@@H](c2ccc(O)cc2)Oc2cc(O)cc(O)c21 [Narigenin]	%	34.90
Oc1cc(O)c2c(c1)O[C@H](c1ccc(O)c(O)c1)[C@H](O)C2 [(−)-Epicatechin]	%	121.77
O=C(O)[C@H]1O[C@@H](Oc2cc3oc(-c4ccccc4)cc(=O)c3c(O)c2O)[C@H](O)[C@@H](O)[C@@H]1O [Baicalin]	%	82.85
COc1ccc([C@@H]2CC(=O)c3c(O)cc(O[C@@H]4O[C@H](CO[C@@H]5O[C@@H](C)[C@H](O)[C@@H](O)[C@H]5O)[C@@H](O)[C@H](O)[C@H]4O)cc3O2)cc1O [Hesperidin]	%	52.72
O=c1cc(-c2ccc(O)c(O)c2)oc2cc(O[C@@H]3O[C@H](CO)[C@@H](O)[C@H](O)[C@H]3O)cc(O)c12 [Luteolin-7-glucoside]	%	88.05
Oc1cc(O)c2c(c1)O[C@@H](c1ccc(O)c(O)c1)[C@@H](O)C2 [(+)-Epicatechin]	%	86.15

###

Test system: CYP1A
Experiment: Dermal microsomal CYP1A enzymatic activity (7-ethoxyresorufin-O-deethylase), inhibition or enhancement
Conditions: nude, mouse, skin (dermal) microsomes, pH 7.8, probe 7-ethoxyresorufin, dermal CYP1A activity (% of control group), compound 100 μM; skin microsomes; mean of at least 3 repeats
Description: Nude mice were sacrificed by decapitation. The precipitate containing the microsomes was obtained.
outcome_measure: activity at 10 min, 100 µM

                                  structure             outcome_measure  result
0  CC1(C)CC[C@]2(C(=O)O)CC[C@]3(C)C(=CC[C@@H]4[C@@]5(C)CC[C@H](O)C(C)(C)[C@@H]5CC[C@]43C)[C@@H]2C1  activity at 10 min, 100 µM   46.7%

###

System: CYP1A
Test: Dermal microsomal CYP1A enzymatic activity (7-ethoxyresorufin-O-deethylase), inhibition or enhancement
Details: nude, mouse, skin (dermal) microsomes, pH 7.8, probe 7-ethoxyresorufin, dermal CYP1A activity (% of control group), compound 1 μM; skin microsomes; mean of at least 3 repeats
outcome_measure: activity at 10 min, 1 µM (%)

>>> df
                                   compound           outcome_measure  measured_number
0  CC1(C)CC[C@]2(C(=O)O)CC[C@]3(C)C(=CC[C@@H]4[C@@]5(C)CC[C@H](O)C(C)(C)[C@@H]5CC[C@]43C)[C@@H]2C1 [Oleanolic acid]  activity at 10 min, 1 µM               24

###

System: CYP1A
Assay: Dermal microsomal CYP1A enzymatic activity (7-ethoxyresorufin-O-deethylase), inhibition or enhancement
Conditions: nude, mouse, skin (dermal) microsomes, pH 7.8, probe 7-ethoxyresorufin, dermal CYP1A activity (% of control group), compound 10 μM; skin microsomes; mean of at least 3 repeats
outcome_measure: activity at 10 min, 10 µM (%)

                                  structure  assay_target  measured_number
0  CC1(C)CC[C@]2(C(=O)O)CC[C@]3(C)C(=CC[C@@H]4[C@@]5(C)CC[C@H](O)C(C)(C)[C@@H]5CC[C@]43C)[C@@H]2C1         CYP1A             25.7

###

Test system: CYP1A
Experiment: in vitro
Settings: nude, mouse, pH 7.8, dermal CYP1A activity (% of control group)
outcome_measure: activity at 10 min, 100 µM

In [3]: df
Out[3]:
                                 structure  assay_target             outcome_measure  result
0  O=c1c(O)c(-c2ccc(O)cc2)oc2cc(O)cc(O)c12         CYP1A  activity at 10 min, 100 µM      0%
1        O=c1c(-c2ccc(O)cc2)coc2cc(O)ccc12         CYP1A  activity at 10 min, 100 µM   77.2%
2                     O=C(O)c1ccc(O)c(O)c1         CYP1A  activity at 10 min, 100 µM    102%
3  O=c1cc(-c2ccc(O)c(O)c2)oc2cc(O)cc(O)c12         CYP1A  activity at 10 min, 100 µM   10.4%
